- TARGET OF ASSAY: T1, human CD1a expressed on cells (human, UniProt P06126 17-327; P61769 21-119)
- T1 construct: also called HEK - CD1a; C1R - CD1a
- PROTOCOL NOTES: flow cytometry, MOLT4 cells, 0.1 µg/ml antibody
VALUE TYPE: Fluorescence Intensity Geomean (normalized to background) (fold over background)
Entry rule: numbers only, all in fold over background.

Quick one: Fluorescence Intensity Geomean (normalized to background) of 110 (VR12112) (antibody, V domains shown, also called OX110; antibody 110) VH: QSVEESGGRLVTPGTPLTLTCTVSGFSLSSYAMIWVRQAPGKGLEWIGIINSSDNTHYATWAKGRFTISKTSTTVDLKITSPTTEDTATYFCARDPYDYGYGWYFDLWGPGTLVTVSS VL: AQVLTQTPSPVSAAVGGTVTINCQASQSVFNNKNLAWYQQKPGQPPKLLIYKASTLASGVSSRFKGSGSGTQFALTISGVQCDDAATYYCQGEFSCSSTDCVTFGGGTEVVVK ?
16.8

Quick one: Fluorescence Intensity Geomean (normalized to background) of 77A (VR11851) (antibody, V domains shown, also called OX77a; antibody 77a) VH: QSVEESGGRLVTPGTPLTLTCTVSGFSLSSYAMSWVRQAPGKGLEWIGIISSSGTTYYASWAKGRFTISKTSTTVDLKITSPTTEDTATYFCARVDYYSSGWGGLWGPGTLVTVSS VL: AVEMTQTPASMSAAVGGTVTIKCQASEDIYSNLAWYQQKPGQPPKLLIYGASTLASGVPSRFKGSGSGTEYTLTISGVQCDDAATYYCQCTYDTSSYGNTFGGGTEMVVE ?
12.4

Quick one: Fluorescence Intensity Geomean (normalized to background) of 116 (VR12117) (antibody, V domains shown, also called OX116) VH: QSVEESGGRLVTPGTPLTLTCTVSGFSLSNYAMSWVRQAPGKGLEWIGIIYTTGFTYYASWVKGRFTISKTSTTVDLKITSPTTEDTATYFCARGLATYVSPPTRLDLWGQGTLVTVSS VL: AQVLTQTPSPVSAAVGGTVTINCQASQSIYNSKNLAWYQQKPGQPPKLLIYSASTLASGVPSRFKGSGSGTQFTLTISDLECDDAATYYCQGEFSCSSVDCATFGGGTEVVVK ?
22.6

Next:
Quick one: Fluorescence Intensity Geomean (normalized to background) of 16 (VR11834) (antibody, V domains shown, also called OX16; antibody 16) VH: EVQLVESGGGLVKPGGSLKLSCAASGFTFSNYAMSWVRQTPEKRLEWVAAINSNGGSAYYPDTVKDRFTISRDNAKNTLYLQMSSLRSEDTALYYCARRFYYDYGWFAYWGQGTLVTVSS VL: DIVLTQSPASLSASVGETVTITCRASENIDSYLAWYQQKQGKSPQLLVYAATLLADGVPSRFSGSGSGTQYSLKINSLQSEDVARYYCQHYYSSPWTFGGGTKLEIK ?
14.4

Quick one: Fluorescence Intensity Geomean (normalized to background) of 111 (VR12113) (antibody, V domains shown, also called OX111) VH: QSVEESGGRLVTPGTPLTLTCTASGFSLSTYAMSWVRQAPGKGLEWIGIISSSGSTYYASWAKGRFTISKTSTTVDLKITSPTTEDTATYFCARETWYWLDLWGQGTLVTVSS VL: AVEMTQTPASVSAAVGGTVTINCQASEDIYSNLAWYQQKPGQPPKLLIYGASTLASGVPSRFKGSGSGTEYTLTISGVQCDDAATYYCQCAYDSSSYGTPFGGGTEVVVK ?
20.6
